# measured-target: T1, human LILRB1 recombinant protein (human, UniProt Q8NHL6 24-461)
# T1 construct: The ELISA method says only 'LILRB1 recombinant proteins' coated on plates; also called leukocyte immunoglobulin-like receptor subfamily B member 1
# T1 sequence (Q8NHL6 24-461 limits assumed): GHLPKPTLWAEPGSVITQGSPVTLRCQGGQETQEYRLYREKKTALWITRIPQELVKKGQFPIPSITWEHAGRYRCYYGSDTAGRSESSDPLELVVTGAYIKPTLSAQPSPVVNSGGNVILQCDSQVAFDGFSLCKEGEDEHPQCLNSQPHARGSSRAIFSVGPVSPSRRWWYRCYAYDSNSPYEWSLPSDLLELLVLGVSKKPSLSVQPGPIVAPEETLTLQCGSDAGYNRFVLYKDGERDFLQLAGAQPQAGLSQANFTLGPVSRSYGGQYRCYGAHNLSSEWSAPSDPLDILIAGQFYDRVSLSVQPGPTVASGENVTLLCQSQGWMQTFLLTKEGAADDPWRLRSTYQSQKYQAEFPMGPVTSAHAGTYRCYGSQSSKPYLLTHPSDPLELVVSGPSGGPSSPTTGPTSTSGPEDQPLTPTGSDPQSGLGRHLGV
# measurement-description: ELISA, B cell supernatant
Mark Condition not met for OD450 values under 2 OD450, and Condition met for everything at or above.

Reported OD450 at or above 2 OD450? mAb of B cell clone 10 (supernatant) (antibody, V domains shown, rabbit; also called B1-#10) VH: EQSVEESGGGLVKPEGSLTLTCKASGLDFSSSYWICWVRQAPGKGLEWIACIDTGSSGSTYYASWAKGRFTVSKTSSTTVSLQMTSLTAADTATYFCASTPNSLGYDLWGPGTLVTISS VL: ELDLTQTPASVSAAVGGTVTIKCQASQNIVSNLAWYQQKPGQRPKLLIYYASTLASGVPSRFKGSGSGTEYTLTISDLECADAATYYCQNNAGIYGNYGHGFGGGTELEIK
Condition met

Next:
Entry mAb of B cell clone 58 (supernatant) (antibody, V domains shown, rabbit; also called B1-#58-1) VH: EQSLEESGGDLVKPGASLTLTCTASAFSFSSSSWICWVRQAPGKGLEWIACIYGGSVGTTYYASWAKGRFTISKPSSTTVTLQMTSLAAADTATYFCATNTDSSRSYYNLWGPGTLVTISS VL: ELVLTQTPSSVEVAVGGAVTIKCQASHIITNYLAWYQQRPGQPPKLLIYDASKLASGVPSRFKGSGSGTEFTLTISDLECADAATYYCQNYLYFSSGDWNVFGGGTEVVVK : is its OD450 no less than 2 OD450?
Condition met

These data points were gathered from patent US12723078.
